Test system: 377384-186-R-J1-PDC complex spheroid viability
Assay: Anticancer human tumor 377384-186-R-J1-PDC patient-derived pancreatic carcinoma cell line growth inhibition [RAS]
Conditions: second compound 0.1 µM; first compound 1 µM; hits give low values
Please provide measured viability, T/C for the entries that follow.
Expressed in %, but write only the number.

The reported viability, T/C of the molecule CC(Nc1ccc2c(c1)OCCn1cc(N3C(=O)OCC3C(F)F)nc1-2)C(N)=O (stereo not given) + C=CC(=O)N1CCN(c2nc(OCC3CCCN3C)nc3c(F)c(-c4nc(N)cc(C)c4C(F)(F)F)c(Cl)cc23)C(C)C1 was 45

For record NC1c2ccccc2OC12CCN(c1cnc3c(N4CCCc5ncccc54)n[nH]c3n1)CC2 (stereo not given) + C=CC(=O)N1CCN(c2nc(OCC3CCCN3C)nc3c(F)c(-c4nc(N)cc(C)c4C(F)(F)F)c(Cl)cc23)C(C)C1 the listed viability, T/C is 64.5

For reference, reported viability, T/C for CC(C)NCC(C(=O)N1CCN(c2ncnc3c2C(C)CC3O)CC1)c1ccc(Cl)cc1 (stereo not given) + C#Cc1c(F)ccc2cc(O)cc(-c3ncc4c(N5CC6CCC(C5)N6)nc(OCC56CCCN5CC(F)C6)nc4c3F)c12 stands at 9.68

For record CCC(CC)c1cc(NC2CCC(N)C2)n2nccc2n1 (stereo not given) + C#Cc1c(F)ccc2cc(O)cc(-c3ncc4c(N5CC6CCC(C5)N6)nc(OCC56CCCN5CC(F)C6)nc4c3F)c12 the listed viability, T/C is 9.56

Quick note, viability, T/C for C[C@@H](NC(=O)c1ncnc(N)c1Cl)c1ncc(C(=O)Nc2cc(C(F)(F)F)c(Cl)cn2)s1 + C#Cc1c(F)ccc2cc(O)cc(-c3ncc4c(N5CC6CCC(C5)N6)nc(OCC56CCCN5CC(F)C6)nc4c3F)c12 landed at 19.3

###

Test system: 377384-186-R-J1-PDC complex spheroid viability
Test: Anticancer human tumor 377384-186-R-J1-PDC cell line growth inhibition [RAS];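 also: spheroids exposed to compounds for seven days before readout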
Settings: second compound 0.3 µM; first compound 0.00949 µM; hits give low values
Text: RAS pathway inhibitors in Combinations in Complex Spheroids A high-throughput screen of multi-cell type tumor spheroids was designed to identify active combinations of RAS pathway inhibitors and targeted small molecules. Complex spheroids include a stromal component modeled by human endothelial cells (HUVEC) and fibroblasts modeled by human mesenchymal stem cells (MSCs). […] Compounds. […] If the clinical Cmax for an agent had not been determined, the highest concentration tested was 10 microM. […]
testReadout: viability, T/C (%)
Give the number; % is assumed, so skip it.

Recorded viability, T/C (compound CC1(C)CCC(Nc2ncc(C(F)(F)F)c(-c3c[nH]c4c(P(C)(C)=O)c(C#N)ccc34)n2)CN1 (centres undefined) + CCn1c(-c2cccnc2C(C)OC)c2c3cc(ccc31)N1CCOC(CC(NC(=O)C(C(C)C)N(C)C(=O)C3(F)CCN(C(=O)C#CC(C)(C)N(C)C)CC3)C(=O)N3CCCC(N3)C(=O)OCC(C)(C)C2)C1 ): 23

# viability, T/C (compound: CCc1c2c(nc3ccc(O)cc13)-c1cc3c(c(=O)n1C2)COC(=O)[C@]3(O)CC + CCn1c(-c2cc(N3CCN(C)CC3)cnc2C(C)OC)c2c3cc(ccc31)-c1csc(n1)CC(NC(=O)C1CC1C)C(=O)N1CCCC(N1)C(=O)OCC(C)(C)C2 ) is 1.84

# viability, T/C of CC1(C)CCC(Nc2ncc(C(F)(F)F)c(-c3c[nH]c4c(P(C)(C)=O)c(C#N)ccc34)n2)CN1 (centres undefined) + CCn1c(-c2cc(N3CCN(C)CC3)cnc2C(C)OC)c2c3cc(ccc31)-c1csc(n1)CC(NC(=O)C1CC1C)C(=O)N1CCCC(N1)C(=O)OCC(C)(C)C2 = 1.69

Given item CCc1c2c(nc3ccc(O)cc13)-c1cc3c(c(=O)n1C2)COC(=O)[C@]3(O)CC + CCn1c(-c2cccnc2C(C)OC)c2c3cc(ccc31)N1CCOC(CC(NC(=O)C(C(C)C)N(C)C(=O)C3(F)CCN(C(=O)C#CC(C)(C)N(C)C)CC3)C(=O)N3CCCC(N3)C(=O)OCC(C)(C)C2)C1 , the value recorded as its viability, T/C is 7.93

###

System: 377384-186-R-J1-PDC complex spheroid viability
Test: Anticancer human tumor 377384-186-R-J1-PDC cell line growth inhibition [RAS]; active = viability on the fitted dose curve at most 10% of control; inactive = the rest;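 also: spheroids exposed to compounds for seven days before readout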
Settings: second compound 0.1 µM; first compound 1 µM
Allowed answers: Yes for active, No for inactive

Could you please tell me the result logged for O=C(c1ccc(F)c(F)c1Nc1ccc(I)cc1F)N1CC(O)([C@@H]2CCCCN2)C1 + C=CC(=O)N1CCN(c2nc(OCC3CCCN3C)nc3c(F)c(-c4nc(N)cc(C)c4C(F)(F)F)c(Cl)cc23)C(C)C1 in this assay? Yes

Recorded test call requested for Cc1nc(N2CCC3(CC2)COC(C)C3N)c(CO)nc1Sc1ccnc(N)c1Cl (stereo not drawn) + C#Cc1c(F)ccc2cc(O)cc(-c3ncc4c(N5CC6CCC(C5)N6)nc(OCC56CCCN5CC(F)C6)nc4c3F)c12 Yes

I would be grateful if you could indicate the recorded call for C=CC(=O)N1CCN(c2nc(OCC3CCCN3C)nc3c(F)c(-c4nc(N)cc(C)c4C(F)(F)F)c(Cl)cc23)C(C)C1 (stereo not drawn) + C#Cc1c(F)ccc2cc(O)cc(-c3ncc4c(N5CC6CCC(C5)N6)nc(OCC56CCCN5CC(F)C6)nc4c3F)c12 . Yes

Test call, this molecule: CC(C)NCC(C(=O)N1CCN(c2ncnc3c2C(C)CC3O)CC1)c1ccc(Cl)cc1 (stereo not drawn) + C=CC(=O)N1CCN(c2nc(OCC3CCCN3C)nc3c(F)c(-c4nc(N)cc(C)c4C(F)(F)F)c(Cl)cc23)C(C)C1 No

Which result was noted for this molecule in the test: CC1(O)CCCC1n1c(=O)c(C(F)F)cc2cnc(NC3CCN(S(C)(=O)=O)CC3)nc21 (stereo not drawn) + C=CC(=O)N1CCN(c2nc(OCC3CCCN3C)nc3c(F)c(-c4nc(N)cc(C)c4C(F)(F)F)c(Cl)cc23)C(C)C1 No

Name the outcome recorded for CCN1CCN(Cc2ccc(Nc3ncc(F)c(-c4cc(F)c5nc(C)n(C(C)C)c5c4)n3)nc2)CC1 + C=CC(=O)N1CCN(c2nc(OCC3CCCN3C)nc3c(F)c(-c4nc(N)cc(C)c4C(F)(F)F)c(Cl)cc23)C(C)C1 in the assay. No

// outcome(item) with item = Nc1ccn(C2OC(CO)C(O)C2(F)F)c(=O)n1 (stereo not drawn) + C=CC(=O)N1CCN(c2nc(OCC3CCCN3C)nc3c(F)c(-c4nc(N)cc(C)c4C(F)(F)F)c(Cl)cc23)C(C)C1 Yes

I would be grateful if you could indicate the recorded call for CCC(CC)c1cc(NC2CCC(N)C2)n2nccc2n1 (stereo not drawn) + C=CC(=O)N1CCN(c2nc(OCC3CCCN3C)nc3c(F)c(-c4nc(N)cc(C)c4C(F)(F)F)c(Cl)cc23)C(C)C1 . No

###

So I've got a bunch of compounds here, and I need their viability, T/C values.
Tested on: 377384-186-R-J1-PDC complex spheroid viability
Experiment: Anticancer human tumor 377384-186-R-J1-PDC cell line growth inhibition [RAS];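 also: spheroids exposed to compounds for seven days before readout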
Details: second compound 0.0949 µM; first compound 0.01 µM; hits give low values

Here CCN1CCN(Cc2ccc(Nc3ncc(F)c(-c4cc(F)c5nc(C)n(C(C)C)c5c4)n3)nc2)CC1 + CCn1c(-c2cc(N3CCN(C)CC3)cnc2C(C)OC)c2c3cc(ccc31)-c1csc(n1)CC(NC(=O)C1CC1C)C(=O)N1CCCC(N1)C(=O)OCC(C)(C)C2 was tested on 377384-186-R-J1-PDC complex spheroid viability, and its viability, T/C came to 1.82%

Item CC(C)n1nc(-c2ccc3oc(N)nc3c2)c2c(N)ncnc21 + CCn1c(-c2cccnc2C(C)OC)c2c3cc(ccc31)N1CCOC(CC(NC(=O)C(C(C)C)N(C)C(=O)C3(F)CCN(C(=O)C#CC(C)(C)N(C)C)CC3)C(=O)N3CCCC(N3)C(=O)OCC(C)(C)C2)C1 was tested on 377384-186-R-J1-PDC complex spheroid viability; the reported viability, T/C is 55%

# Nc1ccn(C2OC(CO)C(O)C2(F)F)c(=O)n1 (stereo not drawn) + CCn1c(-c2cc(N3CCN(C)CC3)cnc2C(C)OC)c2c3cc(ccc31)-c1csc(n1)CC(NC(=O)C1CC1C)C(=O)N1CCCC(N1)C(=O)OCC(C)(C)C2 with 377384-186-R-J1-PDC complex spheroid viability: viability, T/C is 2.03%

Considering C=CC(=O)Nc1cc(Nc2nccc(-c3cn(C)c4ccccc34)n2)c(OC)cc1N(C)CCN(C)C + CCn1c(-c2cc(N3CCN(C)CC3)cnc2C(C)OC)c2c3cc(ccc31)-c1csc(n1)CC(NC(=O)C1CC1C)C(=O)N1CCCC(N1)C(=O)OCC(C)(C)C2 , its viability, T/C with 377384-186-R-J1-PDC complex spheroid viability was recorded as 1.82%

Record O=C(c1ccc(F)c(F)c1Nc1ccc(I)cc1F)N1CC(O)([C@@H]2CCCCN2)C1 + CCn1c(-c2cc(N3CCN(C)CC3)cnc2C(C)OC)c2c3cc(ccc31)-c1csc(n1)CC(NC(=O)C1CC1C)C(=O)N1CCCC(N1)C(=O)OCC(C)(C)C2 / 377384-186-R-J1-PDC complex spheroid viability, viability, T/C recorded as 0.96%

// viability, T/C (377384-186-R-J1-PDC complex spheroid viability) for CC(C)n1nc(-c2ccc3oc(N)nc3c2)c2c(N)ncnc21 + CCn1c(-c2cc(N3CCN(C)CC3)cnc2C(C)OC)c2c3cc(ccc31)-c1csc(n1)CC(NC(=O)C1CC1C)C(=O)N1CCCC(N1)C(=O)OCC(C)(C)C2 = 1.18%

Readout viability, T/C for O=C(c1ccc(F)c(F)c1Nc1ccc(I)cc1F)N1CC(O)([C@@H]2CCCCN2)C1 + CCn1c(-c2cccnc2C(C)OC)c2c3cc(ccc31)N1CCOC(CC(NC(=O)C(C(C)C)N(C)C(=O)C3(F)CCN(C(=O)C#CC(C)(C)N(C)C)CC3)C(=O)N3CCCC(N3)C(=O)OCC(C)(C)C2)C1 , test system 377384-186-R-J1-PDC complex spheroid viability, was 77.8%

// viability, T/C (377384-186-R-J1-PDC complex spheroid viability) for CCN1CCN(Cc2ccc(Nc3ncc(F)c(-c4cc(F)c5nc(C)n(C(C)C)c5c4)n3)nc2)CC1 + CCn1c(-c2cccnc2C(C)OC)c2c3cc(ccc31)N1CCOC(CC(NC(=O)C(C(C)C)N(C)C(=O)C3(F)CCN(C(=O)C#CC(C)(C)N(C)C)CC3)C(=O)N3CCCC(N3)C(=O)OCC(C)(C)C2)C1 = 83.3%

FYI, the data here is from PubChem BioAssay AID2060903.
